Please provide measured pIC50 for the entries that follow.
Target: Recombinant full length human OGA enzyme (Homo sapiens, UniProt O60502)
Construct: Recombinant full length human OGA enzyme was purchased from Origene
Sequence (O60502 1-916): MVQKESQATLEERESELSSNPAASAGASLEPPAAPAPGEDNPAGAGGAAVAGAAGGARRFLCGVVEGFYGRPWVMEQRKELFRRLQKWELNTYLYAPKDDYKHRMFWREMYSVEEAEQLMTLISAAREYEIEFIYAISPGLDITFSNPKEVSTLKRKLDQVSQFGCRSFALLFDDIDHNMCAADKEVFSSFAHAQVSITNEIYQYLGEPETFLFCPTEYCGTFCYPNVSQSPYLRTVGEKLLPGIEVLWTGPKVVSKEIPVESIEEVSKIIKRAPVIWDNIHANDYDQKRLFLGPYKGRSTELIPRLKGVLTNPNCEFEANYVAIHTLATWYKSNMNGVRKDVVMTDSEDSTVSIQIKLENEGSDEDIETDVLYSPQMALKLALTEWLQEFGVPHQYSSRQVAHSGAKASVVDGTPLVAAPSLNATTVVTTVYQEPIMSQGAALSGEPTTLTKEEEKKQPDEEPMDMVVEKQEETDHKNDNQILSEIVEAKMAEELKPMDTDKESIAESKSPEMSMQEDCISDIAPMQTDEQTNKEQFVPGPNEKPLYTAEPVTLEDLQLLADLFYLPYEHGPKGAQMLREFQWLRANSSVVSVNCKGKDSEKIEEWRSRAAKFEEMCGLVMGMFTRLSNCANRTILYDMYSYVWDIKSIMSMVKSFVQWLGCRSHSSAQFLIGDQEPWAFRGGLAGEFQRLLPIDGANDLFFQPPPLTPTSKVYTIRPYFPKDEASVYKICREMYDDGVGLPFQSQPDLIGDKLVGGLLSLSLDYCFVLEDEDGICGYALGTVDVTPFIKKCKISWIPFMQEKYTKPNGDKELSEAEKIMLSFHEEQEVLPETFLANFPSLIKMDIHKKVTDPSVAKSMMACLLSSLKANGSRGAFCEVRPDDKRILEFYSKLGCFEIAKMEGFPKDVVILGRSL
Test: OGA Enzyme Inhibition Biochemical Assay
Conditions: 1 nM OGA, 100 μM 4-MUGlcNAc (Km), pH 6.4, 90 minutes at room temperature; 10-point dose-response starting from 20 μM
By convention, pIC50 is the negative base-10 log of a molar concentration.

// fetch Recombinant full length human OGA enzyme (Homo sapiens, UniProt O60502) pIC50 for `CC(=O)Nc1ncc(CN2C[C@@H](COc3cc(C)nc(C)c3)N(C)C[C@@H]2C)s1`
7.42

Recall the recorded pIC50 for COc1cc(CC2CN(Cc3cnc(NC(C)=O)s3)CCN2C)ccn1 (single isomer, unassigned) [Example 4-12 Peak 1] with Recombinant full length human OGA enzyme (Homo sapiens, UniProt O60502) and state it.
6.02

Which measured pIC50 belongs to `CC(=O)Nc1ncc(CN2CCO[C@@H](Cc3ncc(F)cn3)C2)s1` , tested on Recombinant full length human OGA enzyme (Homo sapiens, UniProt O60502)?
5.36

Give pIC50 (Recombinant full length human OGA enzyme (Homo sapiens, UniProt O60502)) of the following molecule: CC(=O)Nc1ncc(CN2CCOC(C(C)c3ncc(F)cn3)C2)s1 (single isomer, unassigned) [Example 1-25 Peak 1]
8.28

Query for Recombinant full length human OGA enzyme (Homo sapiens, UniProt O60502): what pIC50 does the record show for `COc1nccc(C[C@@H]2CN(Cc3cnc(NC(C)=O)s3)CCO2)c1C` ?
7.21

GET /values?readout=pIC50&system=Recombinant full length human OGA enzyme (Homo sapiens, UniProt O60502)&item= `CC(=O)Nc1ncc(CN2CCO[C@H](Cc3ccnc(OC(F)F)c3)C2)s1`
6.87

What pIC50 appears in the records for this molecule with Recombinant full length human OGA enzyme (Homo sapiens, UniProt O60502)? COc1cc(CC2CN(Cc3cnc(NC(C)=O)s3)CCN2)ccn1 (single isomer, unassigned) [Example 2-22 Peak 2]
6.07

---

molecular target: Recombinant full length human OGA enzyme (Homo sapiens); construct: Recombinant full length human OGA enzyme was purchased from Origene; assay: OGA Enzyme Inhibition Biochemical Assay; conditions: 1 nM OGA, 100 μM 4-MUGlcNAc (Km), pH 6.4, 90 minutes at room temperature; 10-point dose-response starting from 20 μM
reported_property: IC50 (nM)
Quick reminder: number only, in nM, skip the unit.

// query IC50 value for entry CC(=O)Nc1ncc(C(C)N2CCO[C@H](Cc3ncc(F)cn3)C2)s1 (single isomer, unassigned) [Example 1-23 Peak 1]
19

Tell me the measured IC50 of CC(=O)Nc1ncc(CN2C[C@@H](COc3cc(C)nc(C)c3)OC[C@@H]2C)s1 [Example 3-4] , please.
17

Query (compound): COc1cc(CC2CN(Cc3cnc(NC(C)=O)s3)CCN2)ccc1F (single isomer, unassigned) [Example 4-6 Peak 1] ; field requested: IC50
11000

State the recorded IC50 for this entry: CC(=O)Nc1ncc(CN2C[C@@H](Cc3ccnc(C)c3)N(C)C[C@@H]2C)s1 [Example 2-2]
9.8

Returns the measured IC50 for the input compound. Input: CCOc1cc(C[C@@H]2CN(Cc3cnc(NC(C)=O)s3)CCO2)ccn1 [Example 1-11]
130

What value of IC50 has been recorded for this entry: CCN1C[C@H](C)N(Cc2cnc(NC(C)=O)s2)C[C@H]1Cc1ccnc(C)c1 [Example 2-3]
26

---

Please go through the items and note down their pIC50.
Biological target: Recombinant full length human OGA enzyme (Homo sapiens)
Construct: Recombinant full length human OGA enzyme was purchased from Origene; purchased Origene
Assay: OGA Enzyme Inhibition Biochemical Assay
Conditions: 1 nM OGA, 100 μM 4-MUGlcNAc (Km), pH 6.4, 90 minutes at room temperature; 10-point dose-response starting from 20 μM
Description: OGA Enzyme Inhibition Biochemical Assay Recombinant full length human OGA enzyme was purchased from Origene. 4-MUGlCNAc substrate was purchased from Sigma. All other reagents were purchased from Sigma or Fisher. […] Reactions were incubated for 90 minutes at room temperature and quenched with 40 μl of 3M glycine, pH 10 and read on a Perkin Elmer Envision plate reader (Ex: 355 nm/Em: 460 nm). […]
pIC50: −log10 of the molar value.

Quick one: pIC50 of `CC(=O)Nc1ncc(CN2CCN(C)[C@H](Cc3ccc(C)nc3)C2)s1` ?
< 4.70

Request the reported pIC50 associated with COc1cc(CC2CN(Cc3cnc(NC(C)=O)s3)CCCN2C(C)=O)ccn1 (stereo not drawn)
< 4.70

I would be grateful if you could share the reported pIC50 for CC(=O)Nc1ncc(CN2CCN(C)CC(COc3ncc(F)cn3)C2)s1 (stereo not drawn) .
< 4.70

---

Task for the reader: assign each of the following compounds its reported IC50.
Biological target: Recombinant full length human OGA enzyme (Homo sapiens)
Construct: Recombinant full length human OGA enzyme was purchased from Origene
Test: OGA Enzyme Inhibition Biochemical Assay
Details: 1 nM OGA, 100 μM 4-MUGlcNAc (Km), pH 6.4, 90 minutes at room temperature; 10-point dose-response starting from 20 μM
Method: OGA Enzyme Inhibition Biochemical Assay Recombinant full length human OGA enzyme was purchased from Origene. 4-MUGlCNAc substrate was purchased from Sigma. All other reagents were purchased from Sigma or Fisher. […] Reactions were incubated for 90 minutes at room temperature and quenched with 40 μl of 3M glycine, pH 10 and read on a Perkin Elmer Envision plate reader (Ex: 355 nm/Em: 460 nm). […]
Numeric only. Scale: nM

Find the recorded IC50 belonging to `CC(=O)Nc1nc(F)c(CN2CCO[C@H](Cc3ccc(C)nc3)C2)s1` and report it.
140

Fill in: IC50 of `CC(=O)Nc1ncc(CN2C[C@@H](Cc3ccc(C)nc3)NC[C@@H]2C)s1` is ___
45

IC50 for `CC(=O)Nc1ncc(CN2C[C@@H](Cc3ccc(C)nc3)N(C)C[C@@H]2C)s1` ?
45

Returns the measured IC50 for the input compound. Input: CC(=O)Nc1ncc(CN2CCCN(C)C(Cc3ncc(F)cn3)C2)s1 (centres unmarked)
12000

Given COc1cc(CC2CN(Cc3cnc(NC(C)=O)s3)CCN2)ccc1F (single isomer, unassigned) [Example 4-6 Peak 2] , state its recorded IC50.
4100
